- System: Malme-3M
- measurementProtocol: NCI tumour cell line growth inhibition, 48 h
The source made the active and inactive calls. No stated cut-off is given here; in the data, active = GI50 up to about 1.1 µM and inactive = higher. Residues, ends and D or L forms follow the SMILES beside them. *: point of attachment. Pentanoyl = CCCCC(=O)*; Boc = CC(C)(C)OC(=O)*
Respond only with the outcome that fits, drawn from label 1 = active, label 0 = inactive

Example cases with answers are listed next.
molecule | systemTested | answerLabel
Clc1nc2c(-c3cccs3)ncnc2n1Cc1ccccc1 | Malme-3M | label 0
O=C(O)[C@H](CCC[C@H]1C(=O)O[C@H](c2ccccc2)[C@H](c2ccccc2)N1C(=O)OCc1ccccc1)N[C@@H](c1ccccc1)[C@H](O)c1ccccc1 | Malme-3M | label 0
COC(=O)C(CNC(=O)/C=C/c1ccc(OC)c(OC)c1)NC(=O)/C=C/c1ccc(OC)c(OC)c1 (stereo unspecified) | Malme-3M | label 0
CC(=O)C1=CCC2c3[nH]c4ccccc4c3CCN2C1 (stereo unspecified) | Malme-3M | label 0

Qu. Which outcome was entered for the molecule COC(=O)[C@H]1[C@@H](O)[C@@]2(O)c3c(OC)cc(OC)cc3O[C@@]2(c2ccc3c(c2)OCO3)[C@@H]1c1ccccc1 in this test?
Ans. label 1

Qu. Kindly provide the recorded test outcome for the following molecule: Cc1c(CN)c(C)c(CN)c(C)c1CN
Ans. label 0

Qu. Short answer needed: outcome of this test for COc1ccc(C2=Nc3c(nc(SC)[nH]c3=O)NC(c3ccccc3)C2)cc1 (stereo unspecified) ?
Ans. label 0

Qu. Each molecule tested received a call. Report the one for CC12CCCCC1=C(F)C(F)(F)S2 (stereo unspecified) .
Ans. label 0

Qu. How was COc1ccc(CNc2nc(NCc3ccc(OC)cc3)nc(N3CCOCC3)n2)cc1 classified in this test?
Ans. label 1

Qu. Query: recorded result category for CCCCC(=O)Oc1ccc(CC(NC(=O)OC(C)(C)C)C(=O)NC(C)C(=O)NC(Cc2ccccc2)C(=O)NCC(N)=O)cc1 (stereo unspecified) (Boc-Y(Pentanoyl)AFG-NH2; configuration not given here) in this test
Ans. label 0

Qu. Entry Nc1cc([N+](=O)[O-])ccc1C(=O)N1CCC[C@H]1CO : call = ?
Ans. label 0

Qu. Lab log entry: CCSC1SC(c2ccccc2)(c2ccccc2)c2ccccc21 (stereo unspecified) — outcome as called in the assay?
Ans. label 0

Qu. Test call for this molecule, please: O=c1c2cc(-c3ccccc3)sc2nc2sc(-c3ccccc3)nn12
Ans. label 0

Qu. Answer briefly: the call reported for C=C1CC(COc2cc(=O)oc3ccccc23)(c2ccccc2)OC1=O (stereo unspecified) in this assay.
Ans. label 0

###

GI50 values by entry
- Test system: HOP-92
- measurementProtocol: NCI tumour cell line growth inhibition, 48 h
Activity calls are given as the source filed them. Cut-off read from the data, not from the text of the source: active = GI50 up to about 1.1 µM and inactive = higher.

These solved cases illustrate the format of a correct answer.
molecule | testValue
CCOC(=O)C1=C(N)N2C(=N[C@H]3CCCC[C@@H]32)N=C1 | > 100 µM (inactive)
O=C(O)[C@H](CCC[C@H]1C(=O)O[C@H](c2ccccc2)[C@H](c2ccccc2)N1C(=O)OCc1ccccc1)N[C@@H](c1ccccc1)[C@H](O)c1ccccc1 | 22.3 µM (inactive)
CC1=NN(c2cccc(S(=O)(=O)O)c2)C2(C1)SCC(=O)N2c1nc2ccccc2s1 (stereo not given) | > 100 µM (inactive)
CN(C)c1ccc2oc(=O)c3ccccc3c2c1 | 35.2 µM (inactive)
CCC(NC1=NCCO1)c1cccs1 (stereo not given) | 17.4 µM (inactive)

The measured GI50 associated with COc1cc(C2SCC(=O)N2c2ccc(-n3c(-c4ccccc4)nc4ccccc4c3=O)cc2)cc(OC)c1OC (stereo not given) reads 28.6 µM (inactive)

Measured GI50, Cc1c(C)c2c(c(N)c1C#N)C(=O)N(Nc1ccccc1)C2=O : 28.5 µM (inactive)

###

- System: NCI-H522
- measurementProtocol: NCI tumour cell line growth inhibition, 48 h
Active and inactive are the calls of the source. No stated cut-off is given here; in the data, active = GI50 up to about 1.1 µM and inactive = higher.
Give your call using only these classes: yes for active, no for inactive

Example entries begin here.
molecule | answerLabel
CN(C)c1snc2c1c(=O)n(C)c(=O)n2C | no
Oc1cc(-c2ccccc2)nc2ncccc12 | yes
CC1NC(=O)c2c(-c3ccccc3)nn(-c3ccccc3)c2NC1=O (configuration not stated) | no
CCN(C(=O)N[C@H](C(=O)N[C@@H](CSC)C(=O)N[C@@H](C)C(=O)OC)C(C)C)c1ccccc1 | no
C[C@]12CC[C@@H]3c4cc(C=O)c(OCc5ccccc5)cc4CC[C@H]3[C@@H]1CCC2OCc1ccccc1 (some centres not stated) | no
COC(=O)C(C)Sc1nc2cc(Cl)ccc2s1 (configuration not stated) | no
OC1c2ccccc2C2C(O)c3ccccc3C12 (configuration not stated) | no
O=[N+]([O-])c1ccc([I+]c2ccccc2)cc1 | no
O=C(O)c1ccccc1CC(Cc1ccccc1)C(=O)O (configuration not stated) | no
CC(C)(C)c1cc(-c2cc(C(C)(C)C)[nH]n2)[nH]n1 | no

Qu. Per the records of this test, what outcome belongs to Cn1c(-c2ccccc2)cc(-c2cccs2)c1-c1cccs1 ?
Ans. no

Qu. Given COC(=O)/C=C/[C@@H]1[C@H](C)N1S(=O)(=O)c1ccc(C)cc1 (some centres not stated) , state the outcome it received in this test.
Ans. no

###

- System: SF-268
- measurementProtocol: NCI tumour cell line growth inhibition, 48 h
The source made the active and inactive calls. No stated cut-off is given here; in the data, active = GI50 up to about 1.1 µM and inactive = higher.
measure: GI50

compound | measure | testValue
Nc1nc(Cl)c2ncn(Cc3cccc(CCl)c3)c2n1 | GI50 | 5.09 µM (inactive)

From here, focus on the item given below.
Entry S=C1NC(c2ccccc2)NC(c2ccccc2)S1 (stereo unspecified) ; assay system SF-268; GI50 recorded at > 100 µM (inactive)

###

- Test system: NCI-H522
- measurementProtocol: NCI tumour cell line growth inhibition, 48 h
Active and inactive are the calls of the source. Cut-off read from the data, not from the text of the source: active = GI50 up to about 1.1 µM and inactive = higher.
// one of class 1 (active), class 0 (inactive), no free text

Past entries and their recorded results:
compound | systemTested | answerLabel
CC1(C)CC[C@]2(C(=O)O)[C@H](O)C[C@]3(C)C(=CC[C@@H]4[C@@]5(C)CC[C@H](OC6OC(C(=O)O)C(O)C(O)C6O)C(C)(C)[C@@H]5CC[C@]43C)[C@@H]2C1 (some centres undefined) | NCI-H522 | class 0
CCN(CC)CCNC(=O)c1ccc([N+](=O)[O-])cc1OC | NCI-H522 | class 0
CN(Cc1cnc2nc(N)nc(N)c2n1)c1ccc(C(=O)NC(CCC(=O)NC(P(=O)(O)O)P(=O)(O)O)C(=O)O)cc1 (centres undefined) | NCI-H522 | class 0
O=C1c2cccc(NCCCNCCO)c2C(=O)c2cccc(NCCCNCCO)c21 | NCI-H522 | class 1
O=c1c2c3c(sc2nc2n1N=CN(c1ccccc1)C2)CCCC3 | NCI-H522 | class 0

Qu. I'd appreciate the recorded outcome for Cc1cccc2c1C(=O)/C(=C/c1ccccc1C(=O)O)C2 from this test.
Ans. class 0

###

- Test system: BT-549
- measurementProtocol: NCI tumour cell line growth inhibition, 48 h
The source made the active and inactive calls. Cut-off read from the data, not from the text of the source: active = GI50 up to about 1.1 µM and inactive = higher.
Classes to choose from: 1 = active, -1 = inactive

compound | systemTested | answerLabel
COC(=O)c1ccc(NCC2=CC(=O)c3ccccc3C2=O)cc1 | BT-549 | -1

Qu. Give the logged outcome of this assay for the following compound: CC1=C(C)C(=O)O[C@@H]([C@](C)(O)[C@]2(O)CC[C@@]3(O)[C@@H]4C[C@H](O)[C@]5(O)[C@@H](O)C=CC(=O)[C@]5(C)[C@H]4CC[C@]23C)C1
Ans. -1

Qu. Answer briefly: the call reported for O=C(O)c1ccccc1CC(Cc1ccccc1)C(=O)O (stereo not given) in this assay.
Ans. -1

Qu. # lookup: test call for Cc1ccc(O)cc1.Cc1cccc(O)c1.Cc1ccccc1O
Ans. -1

Qu. Entry COc1ccc2oc(C(=O)N3CC(CCl)c4ccc([N+](=O)[O-])cc43)cc2c1 (stereo not given) : call = ?
Ans. -1

###

- Tested on: NCI-H522
- measurementProtocol: NCI tumour cell line growth inhibition, 48 h
The source made the active and inactive calls. Rule as the data show it: active = GI50 up to about 1.1 µM and inactive = higher.
The reply should be one of these categories: Y (active), N (inactive)

Known results for compounds:
compound | answerLabel
CO[C@H]1C[C@H](O[C@H]2CC[C@]3(C=O)[C@H]4CC[C@]5(C)[C@@H](C6=CC(=O)OC6)CC[C@]5(O)[C@@H]4CC[C@]3(O)C2)O[C@H](C)[C@H]1O [CYMARIN] | Y
CC12CCCCC1(C)C2Sc1ccccc1 (configuration not stated) | N
C[C@]12CC/C(=N\OCCN3CCCC3)C=C1CCC1C2CC[C@@]2(C)C1CC[C@]2(C)O (some centres not stated) | N
CCN1CC2(CO)CCC(OC)C34C5CC6C(OC)CC(O)(C5C6OC)C(O)(C(OC)C23)C14 (configuration not stated) | N
O=C(O)CCC1COc2ccccc2O1 (configuration not stated) | N

Qu. Recorded test outcome, item CCC(NC1=NCCO1)c1cccs1 (configuration not stated)
Ans. N

Qu. Outcome? COc1cc2c(cc1OC)[C@@](C)(C(O)C(O)C(C)(C)O)NCC2 (some centres not stated)
Ans. N

Qu. Can you look up the reported call for Cc1ccc(C(=O)c2nnc(C(=O)c3ccc(C)cc3)nn2)cc1 for me?
Ans. N

Qu. GET /call?item= CCOC(=O)N[C@H]1CCc2cc(O)c(OC)c(OC)c2-c2ccc(SC)c(=O)cc21 returns the recorded outcome of this test.
Ans. Y

Qu. Lab log entry: Cc1c(Cl)c(C)c(Cl)c(O)c1Cl — outcome as called in the assay?
Ans. N

Qu. Tell me the assay call for CCCCCCCCCN1CCC(=O)C(C(=O)OC)C1 (configuration not stated) please.
Ans. N

Qu. # outcome recorded in this test, key = Cc1nc(C)c(N2CCN(C(=O)O)CC2)c(O)n1
Ans. N

Qu. Each compound tested received a call. Report the one for C[C@@H]1O[C@@H](O[C@H]2[C@H](Oc3cc(O)c4c(=O)cc(-c5ccc(O)cc5)oc4c3)O[C@H](CO)[C@@H](O)[C@@H]2O)[C@H](O)[C@H](O)[C@H]1O [RHOIFOLIN] .
Ans. N

Qu. Could you kindly confirm the outcome this assay logged for O=C1NC(O)c2ccccc2O1 (configuration not stated) ?
Ans. N

Qu. In this assay, the call recorded for Cc1ccc2[nH]c(=O)c(C(C#N)c3ccccc3)nc2c1 (configuration not stated) was what?
Ans. N

Qu. I would be grateful if you could indicate the recorded call for CC(C)(C)C1=C(Br)C(OC(=O)C(F)(F)F)(C(C)(C)C)OP1(=O)c1ccccc1 (configuration not stated) .
Ans. N

Qu. Write down the call the test reported for this compound. Item: COc1ccc(C2SC(C)C(=O)N2c2nc(-c3nc(-c4ccc(Cl)cc4)cs3)cs2)cc1 (configuration not stated)
Ans. N

Qu. For CCOc1ccccc1NC(=O)C1=C(C)NC(C)=C(C(=O)Nc2ccccc2OCC)C1c1ccc([N+](=O)[O-])cc1 , which call appears in the assay record?
Ans. N

Qu. Please state the recorded outcome for this compound: COc1ccc(CC#N)c(OCc2ccccc2)c1
Ans. N

Qu. # lookup: test call for Cc1cc2c(cc1C)C(=O)/C(=N/Nc1ccc(F)cc1)CCO2
Ans. N

Qu. Short answer needed: outcome of this test for ClC(Cl)[Si]12OCCN(CCO1)CCO2 ?
Ans. N

Qu. Which outcome was assigned to Cc1ccc(-c2c(N)nc(NC#N)nc2CCC(=O)Nc2ccccc2[N+](=O)[O-])cc1 in this test?
Ans. N
